Source: paper PMC5526870

assay.system: human A2AAR (Homo sapiens)
Construct: expressed in transfected cells; host or cells: CHO cells
Sequence (P29274 whole entry): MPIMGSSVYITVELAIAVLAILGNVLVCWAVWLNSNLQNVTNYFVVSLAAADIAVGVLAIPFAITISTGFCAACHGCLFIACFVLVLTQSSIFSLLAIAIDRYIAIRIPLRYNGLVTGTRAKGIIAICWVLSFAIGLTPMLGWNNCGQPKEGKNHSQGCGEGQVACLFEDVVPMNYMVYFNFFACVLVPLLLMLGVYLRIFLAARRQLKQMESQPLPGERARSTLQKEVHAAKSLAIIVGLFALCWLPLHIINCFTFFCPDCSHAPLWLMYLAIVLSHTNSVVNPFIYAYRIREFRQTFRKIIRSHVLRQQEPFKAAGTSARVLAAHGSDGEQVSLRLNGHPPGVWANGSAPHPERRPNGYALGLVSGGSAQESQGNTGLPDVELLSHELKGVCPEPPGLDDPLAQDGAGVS
method.summary: Radioligand binding assay, antagonist [3H]ZM241385 (1.0 nM), membranes of CHO or HEK293 cells, compounds 25-36
experimental.setup: [3H]ZM241385; mean ± standard error, n=3; read-out: Ki A2A
Entries and their Ki
Number in µM, nothing else.

Sample answers from the record:
- smiles.string: "CC(=O)Nc1nc2ccc(C)cc2s1"
  Ki (µM): 48.6
- smiles.string: "Cc1nc2ncnc(N)n2n1"
  Ki (µM): 78.5
- smiles.string: "CC(=O)Nc1nc2c(C)cccc2s1"
  Ki (µM): 10.7
- smiles.string: "CC(C)c1nc2c(N)cccn2n1"
  Ki (µM): 223

The compound identified as "CC(=O)Nc1nc2cc(C)ccc2s1" registered its Ki at 11.6

Ki reported for this compound "COc1cccc2sc(NC(C)=O)nc12" : 1.8

Per the record, "CSc1nc2ncnc(N)n2n1" has Ki of 20

----------
Measured inhibition at 300 µM, listed per entry.
assay.system: human A1AR (Homo sapiens, UniProt P30542)
Construct: expressed in transfected cells; host or cells: CHO or HEK293 cells (membrane preparations)
Sequence (P30542 1-326): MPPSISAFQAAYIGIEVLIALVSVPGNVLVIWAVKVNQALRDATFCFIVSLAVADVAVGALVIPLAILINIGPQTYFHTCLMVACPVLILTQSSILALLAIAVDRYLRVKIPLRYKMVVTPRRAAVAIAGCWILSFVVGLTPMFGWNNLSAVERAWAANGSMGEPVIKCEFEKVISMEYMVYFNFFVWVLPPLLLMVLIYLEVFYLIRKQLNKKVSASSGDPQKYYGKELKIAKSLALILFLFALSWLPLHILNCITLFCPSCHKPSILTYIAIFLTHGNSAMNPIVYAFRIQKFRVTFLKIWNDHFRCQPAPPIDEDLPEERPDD
method.summary: Radioligand binding assay, antagonist [3H]DPCPX (0.5 nM), membranes of CHO or HEK293 cells
experimental.setup: read-out: % inhibition at 300 µM A1; 300 µM; [3H]DPCPX; mean ± standard error, n=3
Please answer using the number first and the unit second.

Recorded inhibition at 300 µM (molecule "Nc1ncnc2ncnn12" ): 27%

// Nc1cccn2ncnc12 [Compound 28, [1,2,4]triazolo[1,5-a]pyridin-8-amine] : inhibition at 300 µM value = 22%

The molecule "Cc1nc2ncnc(N)n2n1" showed inhibition at 300 µM equal to 44%

molecule "Cc1nc2c(N)cccn2n1" , inhibition at 300 µM observed: 38%

----------
assay.system: human A2AAR (Homo sapiens)
Construct: expressed in transfected cells; host or cells: CHO cells
method.summary: Radioligand binding assay, antagonist [3H]ZM241385 (1.0 nM), membranes of CHO or HEK293 cells, compounds 25-36
experimental.setup: experimentally determined, A2AAR
parameter: fold increase of affinity compared to compound 32 (fold)
Entry rule: numbers only, all in fold.

Below, each entry is followed by its recorded fold increase of affinity compared to compound 32 result.
- compound: "CC(=O)Nc1nc2c(C)cccc2s1 [Compound 33]"
  assay.system: "human A2AAR (Homo sapiens)"
  reported.result: 7
- compound: "COc1cccc2sc(NC(C)=O)nc12 [Compound 36]"
  assay.system: "human A2AAR (Homo sapiens)"
  reported.result: 44

Please look at the following compound next.
Form field, fold increase of affinity compared to compound 32 with human A2AAR (Homo sapiens), item CC(=O)Nc1nc2cc(C)ccc2s1 [Compound 34] : 7
